These measurements were taken from patent US11541132B2.

# Tgt: native Aβ aggregates in human AD brain tissue sections (Homo sapiens, UniProt P05067)
# Construct: native Aβ aggregates in human AD brain tissue samples; from tissue; host or cells: human AD brain tissue sections
# Sequence (P05067 672-713 limits assumed): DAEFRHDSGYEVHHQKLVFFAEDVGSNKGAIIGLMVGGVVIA
# Assay Text: Aβ in vitro displacement assay (selectivity counterscreen, [3H]Example 3 autoradiography)
# Type: binding
# Condition: 1 μM compound; 3 nM [3H]Example 3; human AD brain sections; read-out: sel. counterscreen PCT_INHIB AD @ 1 μM (% displacement of [3H]Example 3)
So basically: inhibition at 1 µM at 90% or higher? That is T. Lower than 90%? That is F.

// inclusive: inhibition at 1 µM at least 90%? input: `O=C(Nc1cnc(N2CCN(c3ccccn3)CC2)nc1)c1ccccc1F`
T

// inclusive: inhibition at 1 µM at least 90%? input: `COc1ccc(C(=O)Nc2ccc(N3CCN(c4ccc(C#N)cc4)CC3)cc2)nc1`
F

// inclusive: inhibition at 1 µM at least 90%? input: `COc1ccc(C(=O)Nc2ccc(N3CCN(c4ccc(C#N)cn4)CC3)cc2)nc1`
F

###

# Tgt: native Aβ aggregates in human AD brain tissue sections (Homo sapiens, UniProt P05067)
# Construct: native Aβ aggregates in human AD brain tissue samples; from tissue; host or cells: human AD brain tissue sections
# Assay Text: Aβ in vitro displacement assay (selectivity counterscreen, [3H]Example 3 autoradiography)
# Type: binding
# Condition: 1 μM compound; 3 nM [3H]Example 3; human AD brain sections; read-out: sel. counterscreen PCT_INHIB AD @ 1 μM (% displacement of [3H]Example 3)
So basically: inhibition at 1 µM at 90% or higher? That is 1. Lower than 90%? That is -1.

// inclusive: inhibition at 1 µM at least 90%? input: `COc1ccc(C(=O)Nc2ccc(N3CCN(c4ccc(C)nc4)CC3)cc2)cc1`
-1

// inclusive: inhibition at 1 µM at least 90%? input: `COc1ccc(C(=O)Nc2cnc(N3CCN(c4ccc(C#N)cc4)CC3)nc2)cc1`
1

// inclusive: inhibition at 1 µM at least 90%? input: `COC(=O)c1ccc(N2CCN(c3ccc(NC(=O)c4ccc(OC)cc4)cc3)CC2)nc1`
-1

// inclusive: inhibition at 1 µM at least 90%? input: `O=C(Nc1ccc(N2CCN(c3ccccn3)CC2)cc1)c1ccc(O)cc1`
1

###

Please provide measured inhibition at 1 µM for the entries that follow.
# Tgt: native aSyn aggregates in A30P transgenic mouse brain sections (Homo sapiens, UniProt P37840, A30P)
# Construct: from tissue; host or cells: brain sections (midbrain and pons as ROI) of A30P transgenic mice, line B6.D2-Tg(Thy1-SNCA*30P)31Pjk
# Assay Text: aSyn in vitro displacement assay ([3H]Example-3 autoradiography)
# Type: binding, mutant human aSyn gene)
# Condition: read-out: PCT_INHIB A30P @ 1 μM (% displacement of [3H]Example-3)
Value expressed in %; do not type the unit.

Annotate the compound CC(C)(C)[Si](C)(C)OC(CF)COc1ccc(C(=O)Nc2ccc(N3CCN(c4cc(C#N)ccn4)CC3)cc2)cc1 (racemic) [Example 128] with its measured inhibition at 1 µM.
92

Annotate the compound CC(C)(C)[Si](C)(C)OC(CF)COc1ccc(C(=O)Nc2ccc(N3CCN(c4ccc(C#N)cc4)CC3)cc2)cc1 (racemic) [Example 127] with its measured inhibition at 1 µM.
81

Annotate the compound CC(C)(C)[Si](C)(C)OC(CF)COc1ccc(C(=O)Nc2ccc(N3CCN(c4ccccn4)CC3)cc2)cc1 (racemic) [Example 124] with its measured inhibition at 1 µM.
82

Annotate the compound CC(C)(C)[Si](C)(C)OC(CF)COc1ccc(C(=O)Nc2ccc(N3CCN(c4nccs4)CC3)cc2)cc1 (racemic) [Example 126] with its measured inhibition at 1 µM.
82

###

Please provide measured inhibition at 1 µM for the entries that follow.
# Tgt: native Aβ aggregates in human AD brain tissue sections (Homo sapiens, UniProt P05067)
# Construct: native Aβ aggregates in human AD brain tissue samples; from tissue; host or cells: human AD brain tissue sections
# Assay Text: Aβ in vitro displacement assay (selectivity counterscreen, [3H]Example 3 autoradiography)
# Assay type: binding
# Condition: 1 μM compound; 3 nM [3H]Example 3; human AD brain sections; read-out: sel. counterscreen PCT_INHIB AD @ 1 μM (% displacement of [3H]Example 3)

Annotate the compound `COc1ccc(C(=O)Nc2ccc(N3CCN(c4cccc(C#N)n4)CC3)cc2)cc1` with its measured inhibition at 1 µM.
85%

Annotate the compound `COc1ccc(C(=O)Nc2ccc(N3CCN(c4ccc(C#N)cc4)CC3)cc2)cn1` with its measured inhibition at 1 µM.
92%

Annotate the compound `COc1ccc(C(=O)Nc2ccc(N3CCN(c4cccnc4OC)CC3)cc2)cc1` with its measured inhibition at 1 µM.
88%

Annotate the compound `COc1cccc(C(=O)Nc2ccc(N3CCN(c4ccc(C#N)cc4)CC3)cc2)n1` with its measured inhibition at 1 µM.
89%

Annotate the compound `COc1ccc(C(=O)Nc2cnc(N3CCN(c4ccccn4)CC3)nc2)c(C)c1` with its measured inhibition at 1 µM.
86%

Annotate the compound `O=C(Nc1ccc(N2CCN(c3ccccn3)CC2)cc1)c1ccc(OCCF)cc1` with its measured inhibition at 1 µM.
92%

Annotate the compound `COc1ccc(C(=O)Nc2ccc(N3CCN(c4ccc(C#N)cc4OC)CC3)cc2)cc1` with its measured inhibition at 1 µM.
94%

Annotate the compound `COc1ccc(C(=O)Nc2ccc(N3CCN(c4cc(C)c(C#N)cn4)CC3)cc2)cc1` with its measured inhibition at 1 µM.
91%

Annotate the compound `COc1ccc(C(=O)Nc2ccc(N3CCN(c4ccccn4)CC3)cc2)c(F)c1` with its measured inhibition at 1 µM.
95%

Annotate the compound `N#Cc1ccc(N2CCN(c3ncc(NC(=O)c4ccc(N5CCOCC5)cc4)cn3)CC2)nc1` with its measured inhibition at 1 µM.
86%

Annotate the compound O=C(Nc1ccc(N2CCN(c3nccs3)CC2)cc1)c1ccc(OCC(O)CF)cc1 (racemic) with its measured inhibition at 1 µM.
87%

Annotate the compound `COc1ccc(C(=O)Nc2ccc(N3CCN(c4ccc(C#N)cc4)CC3)cc2)cc1` with its measured inhibition at 1 µM.
101%

Annotate the compound `O=C(Nc1cnc(N2CCN(c3ccccn3)CC2)cn1)c1ccc(N2CCOCC2)cc1` with its measured inhibition at 1 µM.
71%

Annotate the compound `CN1CCN(c2ccc(C(=O)Nc3cnc(N4CCN(c5ccccn5)CC4)nc3)cc2)CC1` with its measured inhibition at 1 µM.
91%

Annotate the compound `Cc1ccc(C(=O)Nc2ccc(N3CCN(c4ccccn4)CC3)cn2)nc1` with its measured inhibition at 1 µM.
86%

Annotate the compound `Cc1ccc(C(=O)Nc2ccc(N3CCN(c4ccccn4)CC3)cc2)c(F)c1` with its measured inhibition at 1 µM.
81%

Annotate the compound `COc1ccc(C(=O)Nc2ccc(N3CCN(c4ccc(C#N)cn4)CC3)cc2)cc1OC` with its measured inhibition at 1 µM.
89%

###

# Tgt: native Aβ aggregates in human AD brain tissue sections (Homo sapiens)
# Construct: native Aβ aggregates in human AD brain tissue samples; from tissue; host or cells: human AD brain tissue sections
# Assay Text: Aβ in vitro displacement assay (selectivity counterscreen, [3H]Example 3 autoradiography)
# Type: binding
# Condition: 1 μM compound; 3 nM [3H]Example 3; human AD brain sections; read-out: sel. counterscreen PCT_INHIB AD @ 1 μM (% displacement of [3H]Example 3)
Quantity Measured: inhibition at 1 µM (%)
Value expressed in %; do not type the unit.

Annotate the compound COc1ccc(C(=O)Nc2ccc(N3CCN(c4ccc(C#N)nc4)CC3)cc2)cc1 [Example 154] with its measured inhibition at 1 µM.
96

Annotate the compound COc1ccc(C(=O)Nc2ccc(N3CCN(c4nccs4)CC3)cc2)c(F)c1 [Example 18] with its measured inhibition at 1 µM.
99

Annotate the compound COc1ccc(C(=O)Nc2ccc(N3CCN(c4cccnc4)CC3)cc2)cc1 [Example 38] with its measured inhibition at 1 µM.
93

Annotate the compound CN(C)c1ccc(C(=O)Nc2cnc(N3CCN(c4ccccn4)CC3)nc2)cc1 [Example 62] with its measured inhibition at 1 µM.
97

Annotate the compound COc1ccc(C(=O)Nc2ccc(N3CCN(c4nccs4)CC3)cc2)cc1 [Example 13] with its measured inhibition at 1 µM.
103

Annotate the compound COc1ccc(C(=O)Nc2ccc(N3CCN(c4ncccn4)CC3)cc2)cc1 [Example 49] with its measured inhibition at 1 µM.
95

Annotate the compound Cc1ccc(C(=O)Nc2ccc(N3CCN(c4ccccn4)CC3)cc2)cc1 [Example 5] with its measured inhibition at 1 µM.
102

Annotate the compound COc1ccc(C(=O)Nc2ccc(N3CCN(c4ccc(C#N)cc4)CC3)cn2)cc1 [Example 96] with its measured inhibition at 1 µM.
66

Annotate the compound Cc1cccc(C(=O)Nc2cnc(N3CCN(c4ccccn4)CC3)nc2)c1 [Example 64] with its measured inhibition at 1 µM.
92

###

Please provide measured inhibition at 1 µM for the entries that follow.
# Tgt: native Aβ aggregates in human AD brain tissue sections (Homo sapiens, UniProt P05067)
# Construct: native Aβ aggregates in human AD brain tissue samples; from tissue; host or cells: human AD brain tissue sections
# Assay Text: Aβ in vitro displacement assay (selectivity counterscreen, [3H]Example 3 autoradiography)
# Assay type: binding
# Condition: 1 μM compound; 3 nM [3H]Example 3; human AD brain sections; read-out: sel. counterscreen PCT_INHIB AD @ 1 μM (% displacement of [3H]Example 3)
Value expressed in %; do not type the unit.

Annotate the molecule CN(C)c1ccc(C(=O)Nc2ccc(N3CCN(c4ccccn4)CC3)nn2)cc1 [Example 36] with its measured inhibition at 1 µM.
91

Annotate the molecule COc1ccc(C(=O)Nc2ccc(N3CCN(c4ccc(N(C)C)cn4)CC3)cc2)cc1 [Example 142] with its measured inhibition at 1 µM.
91

Annotate the molecule COc1ccc(C(=O)Nc2ccc(N3CCN(c4ccc(C#N)cn4)CC3)c(C)c2)cc1 [Example 113] with its measured inhibition at 1 µM.
79

Annotate the molecule N#Cc1ccc(N2CCN(c3ccc(NC(=O)c4ccc(OCCF)cc4)cc3)CC2)cc1 [Example 117] with its measured inhibition at 1 µM.
88

Annotate the molecule Cc1ccc(C(=O)Nc2ccc(N3CCN(c4ccccn4)CC3)cn2)cc1 [Example 45] with its measured inhibition at 1 µM.
98

Annotate the molecule COc1ccc(C(=O)Nc2ccc(N3CCN(c4ccccc4C#N)CC3)cc2)cc1 [Example 70] with its measured inhibition at 1 µM.
64

Annotate the molecule O=C(Nc1cnc(N2CCN(c3ccccn3)CC2)nc1)c1ccc(N2CCOCC2)cc1 [Example 63] with its measured inhibition at 1 µM.
94

Annotate the molecule N#Cc1ccc(N2CCN(c3ccc(NC(=O)c4ccc(OCCF)cc4)cc3)CC2)nc1 [Example 116] with its measured inhibition at 1 µM.
85
